- procedure.summary: qHTS of pediatric cancer cell lines to identify multiple opportunities for drug repurposing: Primary screen for MG 63 (6-TG R) cells (AID 1347105); note: nearly all actives have a fitted effect of over 50% in size
- study.conditions: MG 63 (6-TG R) viability, CellTiter-Glo, 48 h; series mostly up to 46 µM
Results filed as inconclusive are left out. Activity calls are given as the source filed them. Calls come from the whole dose curve; as a rule, active = well fitted cell-killing curve with a large enough effect; inconclusive = small, poorly fitted or top-dose-only effect; inactive = no such curve, though single readings can be large or run the other way.
Outcome codes: Yes = active, No = inactive

compound	discrete.label
O=C1NC(=O)C(=Cc2ccc3nccc(-c4ccncc4)c3c2)S1	Yes
CC(C)c1cnn2c(NCc3ccccc3)cc(NCCCCCCN)nc12	Yes
Cc1ccc2nc(NCCN)c3ncc(C)n3c2c1	Yes
CC(C)N(CC[C@H](c1ccccc1)c1cc(CO)ccc1O)C(C)C	No
C[C@]12CCC(=O)C=C1[C@@H]1CC1[C@H]1[C@H]3[C@@H]4C[C@H]4[C@@]4(CCC(=O)O4)[C@@]3(C)CC[C@H]12 (stereo partly specified)	No
O=C(C=CC#Cc1cccc(NS(=O)(=O)c2ccccc2)c1)NO	Yes
CCCCCCCCCCCCCCCC(=O)OC[C@@H](NC(=O)C(Cl)Cl)[C@H](O)c1ccc([N+](=O)[O-])cc1	No
NC[C@H]1O[C@H](O[C@H]2[C@@H](O)[C@@H](O[C@H]3O[C@H](CO)[C@@H](O)[C@H](N)[C@@H]3O)[C@H](N)C[C@@H]2N)[C@H](N)C[C@H]1O	No
COC(=O)C=CC(=O)OC	Yes
OCC(O)C(O)C(O)CO (stereo unspecified)	No
CC[C@H]1OC(=O)[C@H](C)[C@@H](O[C@H]2C[C@@](C)(OC)[C@@H](O)[C@H](C)O2)[C@H](C)[C@@H](O[C@@H]2O[C@@H](C)C[C@H](N(C)C)[C@@H]2O)[C@](C)(O)C[C@@H](C)C(=O)[C@H](C)[C@@H](O)[C@]1(C)O	No
N#Cc1cc(NC(=O)Nc2nnc(-c3ccncc3)s2)ccc1-c1cn[nH]c1	No
OC[C@H]1OC(O)C[C@@H](O)[C@H]1O (stereo partly specified)	No
C[C@@H](Cc1cc2c(c(C(N)=O)c1)N(CCCO)CC2)NCCOc1ccccc1OCC(F)(F)F	No
NC(=O)c1cccc(-c2cccc(OC(=O)NC3CCCCC3)c2)c1	No
CC(=O)C1=C(O)C=C2Oc3c(C(C)=O)c(O)c(C)c(O)c3C2(C)C1=O (stereo unspecified)	No
Cc1cnc(Nc2ccc(N3CCN(C)CC3)cc2)nc1Nc1cccc(S(=O)(=O)NC(C)(C)C)c1	Yes
Cc1cnc(Nc2ccc(CN3CCOCC3)cc2)nc1Nc1cccc(S(=O)(=O)NC(C)(C)C)c1	Yes
COc1cc(O)c2c(c1)C1OC1C[C@H](O)[C@H](O)C(=O)C=CC[C@H](C)OC2=O (stereo partly specified)	Yes
Cn1cc(-c2ccc3ncc(Cc4ccc5ncccc5c4)n3n2)cn1	No
CN(C)c1ccc(C(=O)NCCCCCCC(=O)NO)cc1	Yes
FC(F)c1nc2ccccc2n1-c1nc(N2CCOCC2)nc(N2CCOCC2)n1	Yes
CC(C)OC(=O)[C@H](C)N[P@](=O)(OC[C@H]1O[C@@H](n2ccc(=O)[nH]c2=O)[C@](C)(F)[C@H]1O)Oc1ccccc1	No
O=c1ccn([C@@H]2O[C@H](CO)[C@H](O)[C@@H]2F)c(=O)[nH]1	No
CC(C)n1cnc2c(NCCc3ccc(O)cc3)nc(-c3csc4ccccc34)nc21	Yes
CCCCCCCCc1ccc(CCC(N)(CO)CO)cc1	Yes
CCCCCCCCCCCC(CC1OC(=O)C1CCCCCC)OC(=O)C(CC(C)C)NC=O (stereo unspecified)	No
CC(C)C[C@H](NC(=O)[C@@H](NC(=O)c1cccc(-c2ccccc2)n1)[C@@H](C)O)B(O)O	Yes
C[C@@]12C(=O)OC(=O)[C@@]1(C)C1CCC2O1	Yes
CC(C)C[C@H](NC(=O)CNC(=O)c1cc(Cl)ccc1Cl)B1OC(=O)CC(CC(=O)O)(C(=O)O)O1 (stereo partly specified)	Yes
C=CC1=C(C(=O)O)N2C(=O)[C@@H](NC(=O)C(=NO)c3csc(N)n3)[C@H]2SC1	No
C=C1CCC2[C@](C)(CO)C(O)CC[C@]2(C)C1CC=C1C(=O)OCC1O (stereo partly specified)	No
Cc1cc(O)c2c(c1)C(=O)c1cccc(O)c1C2=O	No
C=C(C)[C@@H]1CC[C@]2(C(=O)O)CC[C@]3(C)[C@H](CC[C@@H]4[C@@]5(C)CC[C@H](O)C(C)(C)[C@@H]5CC[C@]43C)[C@@H]12	No
COc1ccc([C@@H]2CNC(=O)C2)cc1OC1CCCC1	Yes
CC[C@H]1OC(=O)[C@H](C)[C@@H](O[C@H]2C[C@@](C)(OC)[C@@H](O)[C@H](C)O2)[C@H](C)[C@@H](O[C@@H]2O[C@H](C)C[C@H](N(C)C)[C@@H]2O)[C@](C)(OC)C[C@@H](C)C(=O)[C@H](C)[C@@H](O)[C@]1(C)O	No
